Cited source: patent US10028992B2

- Tested on: α7 integrin promoter
- testProtocol: muscle cell-based assay: α7βgal+/− myoblasts/myotubes, LacZ reporter, β-galactosidase cleavage of FDG
- Parameters: species or system mouse
- protocolConditions: curve fit, activity at zero concentration
resultType: Fit Zero Activity [%] (%)
Reply numerically in %, unit not repeated.

Look at this molecule and give its reported Fit Zero Activity [%]. CCCCC(C(=O)NC1CCCC1)N(C(=O)c1snc(C(N)=O)c1N)c1ccc(C)cc1 (centres unmarked)
−26.3814

Look at this molecule and give its reported Fit Zero Activity [%]. COc1ccccc1OCC(=O)N/N=C1/C=C(C)CC1
−23.4705

Look at this molecule and give its reported Fit Zero Activity [%]. O=C(NC(=S)NCCC1=CCCCC1)c1ccc(Br)o1
−40.2978

Look at this molecule and give its reported Fit Zero Activity [%]. COc1cc(Cl)cc(CN2CCC(CCC(=O)NC3CC3)CC2)c1OC
−38.2233

Look at this molecule and give its reported Fit Zero Activity [%]. CCS(=O)(=O)N1CCN(c2ccc([N+](=O)[O-])c(NCC3CCCO3)c2)CC1 (centres unmarked)
0.4864
